The measured values listed here are drawn from ChEMBL document CHEMBL1134259.

Assign selectivity ratio to each entry below.
protocol-details: Therapeutic index (IC50/EC50) was determined.
condition-context: read-out: Therapeutic index
Numbers only.

// known answers, use as guide
Oc1nc(-c2ccc(F)cc2)nc2ccccc12 | 4.22
Oc1nc(-c2cccc(F)c2)nc2ccccc12 | 3.22
COc1cc2nc(-c3ccc4ccccc4c3)nc(O)c2cc1OC | 13.2

Turning now to a further molecule:
[in] Specify selectivity ratio for "COc1cc2nc(-c3ccccc3F)nc(O)c2cc1OC" and stop.
[out] 9.17

* * *

System: SK-MEL-2
protocol-details: In vitro effective concentration required to reduce the number of human melanoma cancer (SKMEL-2) after 3-day incubation
Assay type: functional
condition-context: SK-MEL-2, 72 h, read-out: ED50 (the source's name)
measured-property: EC50

// known answers, use as guide
Oc1nc(-c2ccc3ccccc3c2)nc2ccccc12 | 13 µg/mL
COc1cc2nc(-c3ccc(F)cc3)nc(O)c2cc1OC | > 20 µg/mL
COc1cccc(-c2nc(O)c3ccccc3n2)c1 | > 20 µg/mL
COc1cc2nc(-c3ccccc3F)nc(O)c2cc1OC | < 5 µg/mL

Hi, could you look up EC50 for each item in my list?
1. COc1cc2nc(-c3cccc(F)c3)nc(O)c2cc1OC
2. Oc1nc(-c2cccc(F)c2)nc2ccccc12
3. COc1cccc(-c2nc(O)c3cc(OC)ccc3n2)c1
4. Oc1nc(-c2ccc(F)cc2)nc2ccccc12
5. COc1cc2nc(-c3ccc4ccccc4c3)nc(O)c2cc1OC

[out]
["> 20 µg/mL", "> 20 µg/mL", "> 40 µg/mL", "> 20 µg/mL", "8.5 µg/mL"]
